Hey, just so you know, these numbers are from the RNAGym collection of RNA variant scans (doi:10.7554/elife.80360).

B1: CPEB3 Ribozyme (parent)
chain: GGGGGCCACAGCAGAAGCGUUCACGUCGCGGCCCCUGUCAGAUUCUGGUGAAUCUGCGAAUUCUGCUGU

Variants of: B1
Assay: self-cleavage, relative activity (ratio to wild type); higher = more cleavage; co-transcriptional
Please use criterion met whenever self-cleavage is not below 0.2, and criterion not met whenever it is.

>>> print(df.to_string())
                            ordered_residues        group_label
 0  GGGGGCCACAGCAGAAGCGUUCUCGUCGCGGCCCCUGUCAGAUUUUGGUGAAUCUGCGAAUUCUGCUGU [A23U C45U]      criterion met
 1  GGGGCCCACAGCAGAAGCGUUCACGUCGUGGCCCCUGUCAGAUUCUGGUGAAUCUGCGAAUUCUGCUGU [G5C C29U]  criterion not met
 2  GGGGGCCACAGCAGAAGCGUUCACGUCGCGGCCCCUGUCAGACUCUGGUGAAUCUGCGAAUUCUGGUGU [U43C C66G]      criterion met
 3  GGGGGCCACAGCAGAAUCGUUCGCGUCGCGGCCCCUGUCAGAUUCUGGUGAAUCUGCGAAUUCUGCUGU [G17U A23G]      criterion met
 4  GGGGCCCACAGCAGAAGCGUUCACGUCGAGGCCCCUGUCAGAUUCUGGUGAAUCUGCGAAUUCUGCUGU [G5C C29A]  criterion not met
 5  GGGGGCCACAGGAGAAGCGUUCACGUCGCGGCCCCUGUCAGAUUCUGGUCAAUCUGCGAAUUCUGCUGU [C12G G50C]      criterion met
 6  GGGGGCCACAGCAGAAGCGUUCACGUCGCGGCGCCUGUCAGAUUCUUGUGAAUCUGCGAAUUCUGCUGU [C33G G47U]      criterion met
 7  GGGGGCCACAGCAGAAGCGUCCACGUCGCGGCCCCUGUCAGAUUCUGGUGAAUCUGCGAAUUCUGGUGU [U21C C66G]      criterion met
 8  GGGGGCCACAGCAGGAGCGUUCACGUCGCGGCCCCUGUCAGAUUCUGGUGAACCUGCGAAUUCUGCUGU [A15G U53C]      criterion met
 9  GGGGGCCACAGCAGAAGCGUUCACGUCGCGGCUCCUGUCAGAUUCUGAUGAAUCUGCGAAUUCUGCUGU [C33U G48A]      criterion met
10  GGGGGCCACAGCGGAAGCGUUCACGUCGCGGCCCCUGUCAGAUUCUGGUGAAUCUGCGAAUACUGCUGU [A13G U62A]      criterion met
11  GGGGGCCACAGCAGAAGCGUUCACGUCGCGGCCCCUGUCAGAUUCUUGUGAAUCUGCGAAUUCUGCCGU [G47U U67C]      criterion met
12  GGGGGUCACAGCAGAAGCGUUCACGUCGCGGCCCCUGUCAGAUUCUGGUGAAUCCGCGAAUUCUGCUGU [C6U U55C]      criterion met
13  GGGGGCCACAGCAGAAGCGUGCACGUCGCGGCCCCUGUCAGAUUCUGGUGAAUCUGCGAAUUCUUCUGU [U21G G65U]      criterion met
14  GUGGGCCACAGCAGAAGCGUUCAGGUCGCGGCCCCUGUCAGAUUCUGGUGAAUCUGCGAAUUCUGCUGU [G2U C24G]  criterion not met
15  GGGGGCCACAGCAGAAGCGCUCACGUCGCGGCCCCUGUCAGAUUCUGGUGAACCUGCGAAUUCUGCUGU [U20C U53C]  criterion not met
16  GGGGGCCACAGCAUAAGCGUUCACGUUGCGGCCCCUGUCAGAUUCUGGUGAAUCUGCGAAUUCUGCUGU [G14U C27U]  criterion not met
17  GGGGGCCACAGCAGAAGCGUUUACGUCGCGGCCCCUGUCAGAUUCUGCUGAAUCUGCGAAUUCUGCUGU [C22U G48C]      criterion met
18  GGGGGCCACAGCAGAAGCGUUCGCGUCGCGGCCCCAGUCAGAUUCUGGUGAAUCUGCGAAUUCUGCUGU [A23G U36A]      criterion met
19  GGGGGCCACAGAAGAAGCGUUCACGUCGCGGCCCCUGUCAGAUUCUGGUGAAUCUGGGAAUUCUGCUGU [C12A C57G]      criterion met
20  GGGGGCCGCAGCAGAAGCGUUCACGUCGCGGCCCCUCUCAGAUUCUGGUGAAUCUGCGAAUUCUGCUGU [A8G G37C]  criterion not met
21  GGGGGCCACAGCAGAAGCGAUCACGUCGCGACCCCUGUCAGAUUCUGGUGAAUCUGCGAAUUCUGCUGU [U20A G31A]  criterion not met
